studyTarget: MKLP-2 (RabK6) (Homo sapiens, UniProt O95235, S2A)
Construct: Expression clones for MKLP-21-519 (coding for residues 1 to 519) were obtained as follows; His-tag; made in house; host or cells: E. coli BL21(DE3)
Sequence (O95235 1-519 S2A limits assumed): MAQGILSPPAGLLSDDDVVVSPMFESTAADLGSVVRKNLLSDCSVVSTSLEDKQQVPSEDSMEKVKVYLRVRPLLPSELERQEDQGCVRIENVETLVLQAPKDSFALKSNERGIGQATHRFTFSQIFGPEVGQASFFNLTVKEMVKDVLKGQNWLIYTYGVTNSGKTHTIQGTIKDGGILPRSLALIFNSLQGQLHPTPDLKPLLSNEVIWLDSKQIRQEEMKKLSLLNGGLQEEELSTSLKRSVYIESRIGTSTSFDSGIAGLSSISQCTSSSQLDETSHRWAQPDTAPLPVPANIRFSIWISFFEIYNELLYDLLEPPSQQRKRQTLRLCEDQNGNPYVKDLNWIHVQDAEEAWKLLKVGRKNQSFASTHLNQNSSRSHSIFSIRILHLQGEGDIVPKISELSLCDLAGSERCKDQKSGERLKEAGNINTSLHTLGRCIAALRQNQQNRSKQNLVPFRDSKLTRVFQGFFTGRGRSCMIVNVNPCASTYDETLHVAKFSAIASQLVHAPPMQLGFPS
methodNotes: biochemical
conditionNotes: basal ATPase activity, absence of MTs; read-out: RabK6 basal IC50 X

compound: N#C/C(=C\c1ccc2c(c1)OCO2)c1c[nH]c2ccccc12
IC50: 10 to 20 µM
--
compound: COc1cc(/C=C(\C#N)c2c[nH]c3ccc(OC)cc23)cc(OC)c1
IC50: 5 to 10 µM
--
compound: CC(C)Oc1ccc2[nH]cc(/C(C#N)=C/c3cccnc3)c2c1
IC50: < 5 µM
--
compound: N#C/C(=C\c1ccccc1)c1c[nH]c2ccccc12
IC50: 20 to 50 µM
--
compound: COCC(=O)Oc1ccc2[nH]cc(/C(C#N)=C/c3cccnc3)c2c1
IC50: 5 to 10 µM
--
compound: COc1ccc2[nH]cc(/C(C#N)=C/c3cncnc3)c2c1
IC50: 5 to 10 µM
--
compound: N#C/C(=C\c1cncnc1)c1c[nH]c2ccccc12
IC50: 10 to 20 µM
--
compound: CCOc1ccc2[nH]cc(/C(C#N)=C/c3cccnc3)c2c1
IC50: < 5 µM
--
compound: N#C/C(=C\c1cccnc1)c1c[nH]c2ccc(OCc3ccccc3)cc12
IC50: > 50 µM
--
compound: COc1ccc2[nH]cc(C(C#N)Cc3cccnc3)c2c1 (centres unmarked)
IC50: 20 to 50 µM
--
compound: N#C/C(=C\c1ccccn1)c1c[nH]c2ccccc12
IC50: > 50 µM
